molecular target: Platelet-derived growth factor receptor beta (Homo sapiens, UniProt P09619); test: Inhibition of N-terminal GST-tagged recombinant human PDGFRbeta (amino acids 557-end) expressed in baculovirus infected insect Sf9 cells using Poly(4:1 Glu, Tyr) peptide as substrate after 1 hr by promega ADP-glo assay
Sequence (P09619 whole entry, the tested form may be a part): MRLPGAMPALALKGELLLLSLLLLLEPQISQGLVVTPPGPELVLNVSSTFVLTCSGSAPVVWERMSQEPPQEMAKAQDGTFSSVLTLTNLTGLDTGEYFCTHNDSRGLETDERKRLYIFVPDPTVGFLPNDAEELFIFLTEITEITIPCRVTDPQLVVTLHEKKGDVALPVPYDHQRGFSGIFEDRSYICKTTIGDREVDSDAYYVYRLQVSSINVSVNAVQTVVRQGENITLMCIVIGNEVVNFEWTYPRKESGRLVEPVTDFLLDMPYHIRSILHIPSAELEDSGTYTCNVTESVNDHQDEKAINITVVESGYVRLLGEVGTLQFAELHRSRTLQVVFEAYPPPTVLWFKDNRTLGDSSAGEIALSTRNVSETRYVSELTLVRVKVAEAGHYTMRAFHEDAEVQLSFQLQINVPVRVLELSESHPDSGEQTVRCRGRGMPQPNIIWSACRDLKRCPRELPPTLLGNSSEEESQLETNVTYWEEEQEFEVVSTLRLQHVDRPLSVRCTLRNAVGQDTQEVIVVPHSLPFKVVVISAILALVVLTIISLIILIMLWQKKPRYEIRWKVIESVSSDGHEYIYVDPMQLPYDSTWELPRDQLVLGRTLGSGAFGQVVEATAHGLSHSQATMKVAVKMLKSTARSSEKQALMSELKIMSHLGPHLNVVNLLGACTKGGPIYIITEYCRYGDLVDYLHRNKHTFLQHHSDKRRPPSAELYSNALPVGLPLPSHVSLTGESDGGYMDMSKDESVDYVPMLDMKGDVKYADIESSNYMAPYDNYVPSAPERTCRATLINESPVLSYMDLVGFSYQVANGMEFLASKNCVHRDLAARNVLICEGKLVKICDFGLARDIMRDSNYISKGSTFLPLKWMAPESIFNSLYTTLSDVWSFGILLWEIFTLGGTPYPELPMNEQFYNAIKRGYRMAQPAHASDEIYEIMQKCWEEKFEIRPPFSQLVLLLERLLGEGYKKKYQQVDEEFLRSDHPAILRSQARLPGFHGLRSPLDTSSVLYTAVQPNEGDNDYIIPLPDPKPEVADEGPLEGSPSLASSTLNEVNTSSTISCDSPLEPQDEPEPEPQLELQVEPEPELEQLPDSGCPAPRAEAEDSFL
pIC50: −log10 of the molar value.
Measurement type: pIC50

Cc1ccc(NC(=O)c2cccc(C(F)(F)F)c2)cc1OC1CCN(C(=O)c2ccncc2)CC1; 6.92

====

experiment: AUC(0 to t) in Sprague-Dawley rat plasma at 1 mg/kg, iv; assay type: ADME, organism-based
Measurement type: AUC(0-t)

Cc1ccc(NC(=O)c2cccc(C(F)(F)F)c2)cc1OC1CCN(C(=O)c2ccncc2)CC1; 198 ng·h/mL

====

assay: Apparent clearance in Sprague-Dawley rat plasma at 1 mg/kg, iv; assay type: ADME, organism-based; settings: read-out: CL(app) (converted)
Measurement type: clearance (mL/min/kg)

Cc1ccc(NC(=O)c2cccc(C(F)(F)F)c2)cc1OC1CCN(C(=O)c2ccncc2)CC1; 83.1

====

biological target: Macrophage colony-stimulating factor 1 receptor (Homo sapiens, UniProt P07333); assay: Inhibition of His-tagged recombinant human CSF1R expressed in baculovirus expression system after 1 hr by Z-lyte assay
Sequence (P07333 whole entry): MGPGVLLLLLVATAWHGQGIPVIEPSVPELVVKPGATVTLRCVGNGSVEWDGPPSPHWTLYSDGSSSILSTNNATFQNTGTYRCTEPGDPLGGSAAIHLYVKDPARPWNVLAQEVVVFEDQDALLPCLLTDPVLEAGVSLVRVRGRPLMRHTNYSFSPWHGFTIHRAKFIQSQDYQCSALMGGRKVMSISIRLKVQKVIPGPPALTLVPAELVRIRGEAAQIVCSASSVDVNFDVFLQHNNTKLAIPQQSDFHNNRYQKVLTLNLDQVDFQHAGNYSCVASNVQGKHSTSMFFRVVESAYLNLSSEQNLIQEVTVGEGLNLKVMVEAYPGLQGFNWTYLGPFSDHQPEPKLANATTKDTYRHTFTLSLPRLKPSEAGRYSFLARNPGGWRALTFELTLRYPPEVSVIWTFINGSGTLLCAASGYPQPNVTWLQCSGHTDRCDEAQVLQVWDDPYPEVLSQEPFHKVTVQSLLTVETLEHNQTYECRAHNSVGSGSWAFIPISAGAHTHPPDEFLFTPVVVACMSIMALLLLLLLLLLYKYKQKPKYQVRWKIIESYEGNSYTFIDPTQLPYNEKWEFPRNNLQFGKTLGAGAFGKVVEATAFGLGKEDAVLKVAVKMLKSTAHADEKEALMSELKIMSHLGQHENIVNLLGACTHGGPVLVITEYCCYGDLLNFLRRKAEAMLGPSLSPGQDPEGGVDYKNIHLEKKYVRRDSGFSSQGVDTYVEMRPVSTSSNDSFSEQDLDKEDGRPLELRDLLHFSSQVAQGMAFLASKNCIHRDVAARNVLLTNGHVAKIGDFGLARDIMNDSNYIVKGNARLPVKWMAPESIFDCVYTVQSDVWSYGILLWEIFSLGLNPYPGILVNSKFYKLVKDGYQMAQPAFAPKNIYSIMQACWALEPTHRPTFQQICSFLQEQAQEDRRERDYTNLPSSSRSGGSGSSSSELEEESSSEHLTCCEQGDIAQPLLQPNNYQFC
Measurement type: IC50 (nM)

Cc1ccc(NC(=O)c2cccc(C(F)(F)F)c2)cc1OC1CCN(C(=O)c2ccncc2)CC1; 133

====

test: Antiproliferative activity against mouse BAF3 cells; assay type: cell-based
A collection of compounds and their measured GI50
Measurement type: GI50

Cc1ccc(NC(=O)c2cccc(C(F)(F)F)n2)cc1OC1CCN(C(=O)c2cccnc2)CC1; > 10 µM
Cc1ccc(NC(=O)c2ccc3c(c2)OCO3)cc1OC1CCN(C(=O)c2cccnc2)CC1; > 10 µM
COc1cccc(C(=O)Nc2ccc(C)c(OC3CCN(C(=O)c4cccnc4)CC3)c2)c1; > 10 µM
Cc1ccc(NC(=O)c2cccc(C(F)(F)F)c2)cc1OC1CCN(C(=O)c2ccncc2)CC1; > 10 µM
Cc1ccc(NC(=O)c2ccc(CN3CCN(C)CC3)cc2)cc1Nc1nccc(-c2cccnc2)n1; > 10 µM
Cc1ccc(NC(=O)c2cccc(C(F)(F)F)c2)cc1OCCNC(=O)c1ccno1; > 10 µM
O=C(Nc1cccc(OC2CCN(C(=O)c3cccnc3)CC2)c1)c1cccc(C(F)(F)F)c1; > 10 µM
Cc1ccc(NC(=O)c2cnc3ccccc3c2)cc1OC1CCN(C(=O)c2cccnc2)CC1; > 10 µM
Cc1ccc(NC(=O)c2cccc(C(F)(F)F)c2)cc1OC1CCN(C(=O)c2cccnc2)CC1; > 10 µM
Cc1ccc(NC(=O)c2ccc(C)c(C(F)(F)F)c2)cc1OC1CCN(C(=O)c2ccno2)CC1; 8.94 µM
Cc1ccc(NC(=O)c2ccc(C)c(C(F)(F)F)c2)cc1OC1CCN(C(=O)c2cccnc2)CC1; 5.47 µM
CCC(=O)N1CCC(Oc2cc(NC(=O)c3cccc(C(F)(F)F)c3)ccc2C)CC1; > 10 µM
Cc1ccc(NC(=O)c2cccc(C(F)(F)F)c2)cc1OC1CCN(C(=O)c2ccno2)CC1; > 10 µM
Cc1ccc(NC(=O)c2cc(Cl)cc(C(F)(F)F)c2)cc1OC1CCN(C(=O)c2ccno2)CC1; > 10 µM
CCN(CC)CCNC(=O)c1c(C)[nH]c(/C=C2\C(=O)Nc3ccc(F)cc32)c1C; 2.78 µM
COc1ccc(NC(=O)c2cccc(C(F)(F)F)c2)cc1OC1CCN(C(=O)c2cccnc2)CC1; > 10 µM
Cc1ccc(NC(=O)c2cccc(C(F)(F)F)n2)cc1OC1CCN(C(=O)c2ccno2)CC1; > 10 µM
O=C(Nc1cccc(OC2CCCN(C(=O)c3ccno3)C2)c1)c1cccc(C(F)(F)F)c1 (stereo not given); > 10 µM
O=C(Nc1cccc(OC2CCCN(C(=O)c3cccnc3)C2)c1)c1cccc(C(F)(F)F)c1 (stereo not given); 8.07 µM
Cc1ccc(NC(=O)c2ccc(C)c(C(F)(F)F)c2)cc1OC1CCN(C(=O)c2ccncc2)CC1; 6.39 µM
